All values here come from patent US20100173968A1.

target or system: α4β2 nAChR Subtype (Rattus norvegicus, UniProt P09483+P12390)
Sequence (P09483 31-630): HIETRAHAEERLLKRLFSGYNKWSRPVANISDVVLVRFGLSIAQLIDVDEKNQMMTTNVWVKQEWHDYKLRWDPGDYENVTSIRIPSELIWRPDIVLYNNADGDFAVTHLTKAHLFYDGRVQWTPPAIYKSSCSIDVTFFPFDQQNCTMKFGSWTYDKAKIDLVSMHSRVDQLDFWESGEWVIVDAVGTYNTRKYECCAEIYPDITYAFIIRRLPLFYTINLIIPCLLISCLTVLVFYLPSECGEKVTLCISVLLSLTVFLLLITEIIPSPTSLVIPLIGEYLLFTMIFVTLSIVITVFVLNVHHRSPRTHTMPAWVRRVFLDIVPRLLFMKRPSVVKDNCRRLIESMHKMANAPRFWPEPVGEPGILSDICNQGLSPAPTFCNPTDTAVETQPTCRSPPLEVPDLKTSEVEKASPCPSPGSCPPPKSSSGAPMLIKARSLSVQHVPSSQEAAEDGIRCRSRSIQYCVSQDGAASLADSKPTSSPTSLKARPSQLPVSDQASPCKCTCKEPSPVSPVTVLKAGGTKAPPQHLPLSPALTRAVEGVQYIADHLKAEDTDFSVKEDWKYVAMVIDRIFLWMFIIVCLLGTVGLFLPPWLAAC
Sequence (P12390 25-500): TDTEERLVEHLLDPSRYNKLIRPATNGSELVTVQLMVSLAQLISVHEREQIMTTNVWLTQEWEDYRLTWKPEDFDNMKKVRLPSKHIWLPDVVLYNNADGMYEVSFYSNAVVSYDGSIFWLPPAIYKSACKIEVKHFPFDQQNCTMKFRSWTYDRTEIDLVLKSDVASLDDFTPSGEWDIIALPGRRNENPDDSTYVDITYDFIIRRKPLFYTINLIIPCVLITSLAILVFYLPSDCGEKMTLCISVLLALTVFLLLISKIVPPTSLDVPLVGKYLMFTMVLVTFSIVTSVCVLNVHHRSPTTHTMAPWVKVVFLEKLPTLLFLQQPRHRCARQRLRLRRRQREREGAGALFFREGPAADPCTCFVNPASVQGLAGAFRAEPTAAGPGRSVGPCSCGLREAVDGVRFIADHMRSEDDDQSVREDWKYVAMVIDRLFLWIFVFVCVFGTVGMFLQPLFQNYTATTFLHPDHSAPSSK
assay name: Radioligand binding at α4β2 nAChR subtype, inhibition of [3H]nicotine binding, rat cerebral cortex membranes
condition description: [3H]nicotine 5 nM, read-out: Rat α4β2 Ki
# Ki binned as Low = under 50 nM, Medium = from 50 nM up to 100 nM, High = 100 nM and over

| compound | target or system | label |
| --- | --- | --- |
| CNC(=O)C1C[C@H]2CNC[C@H]2C1 (mixture of isomers) | α4β2 nAChR Subtype (Rattus norvegicus, UniProt P09483+P12390) | Medium |
| CCC(C)C(=O)C1C[C@H]2CNC[C@H]2C1 (mixture of isomers) | α4β2 nAChR Subtype (Rattus norvegicus, UniProt P09483+P12390) | Low |

INPUT: # bin label for O=C(CF)C1CC2CNCC2C1 (single isomer, unassigned; isomer 1) [trifluoroacetate]
OUTPUT: High

INPUT: What would you report for CC(C)CC(=O)C1C[C@H]2CNC[C@H]2C1 (mixture of isomers) ?
OUTPUT: Low

INPUT: What would you report for C#CCC(C)OC(=O)C1C[C@H]2CNC[C@H]2C1 (mixture of isomers) ?
OUTPUT: High

INPUT: What would you report for O=C(C1C[C@H]2CNC[C@H]2C1)N1CCCCO1 (mixture of isomers) ?
OUTPUT: Low

INPUT: What would you report for CCNC(=O)C1CC2CNCC(C2)C1 (stereo not shown) ?
OUTPUT: Low

INPUT: What would you report for O=C(Nc1ccc(F)cc1)C1CC2CNCC(C2)C1 (stereo not shown) ?
OUTPUT: Medium

INPUT: What would you report for CC(C)OCC(=O)C1C[C@H]2CNC[C@H]2C1.O=C(O)C(F)(F)F (mixture of isomers) [trifluoroacetate] ?
OUTPUT: High

INPUT: What would you report for N#Cc1ccoc1C(=O)[C@H]1C[C@H]2CNC[C@H]2C1 ?
OUTPUT: Low

INPUT: What would you report for O=C(NC1CC1)C1CC2CNCC(C2)C1 (stereo not shown) ?
OUTPUT: High

INPUT: What would you report for O=C(NC1CCC1)C1CC2CNCC(C2)C1 (stereo not shown) ?
OUTPUT: High

INPUT: What would you report for O=C(OCC1CCOC1)C1C[C@H]2CNC[C@H]2C1 (mixture of isomers) ?
OUTPUT: High

INPUT: What would you report for O=C(C1CC2CNCC(C2)C1)N1CCOCC1 (stereo not shown) ?
OUTPUT: Medium

INPUT: What would you report for CCOC(=O)C1C[C@H]2CNC[C@H]2C1 (mixture of isomers) ?
OUTPUT: Low

INPUT: What would you report for O=C(C1C[C@H]2CNC[C@H]2C1)N1CCC[C@H]1CO (mixture of isomers) ?
OUTPUT: High

INPUT: What would you report for O=C(c1ccncc1)C1C[C@H]2CNC[C@H]2C1 (mixture of isomers) ?
OUTPUT: Low

INPUT: What would you report for O=C(NCc1ccccc1)C1CC2CNCC(C2)C1 (stereo not shown) ?
OUTPUT: High

----------
target or system: α4β2 nAChR Subtype (Rattus norvegicus, UniProt P09483+P12390)
assay name: Radioligand binding at α4β2 nAChR subtype, inhibition of [3H]nicotine binding, rat cerebral cortex membranes
condition description: [3H]nicotine 5 nM, read-out: Rat α4β2 Ki
Counter-ions that a name gives are not always drawn.
Give measured Ki for each item. Keep answers brief.
Numbers only, in µM.

| molecule | unit symbol | result number |
| --- | --- | --- |
| O=C(OC1CCOCC1)C1C[C@H]2CNC[C@H]2C1 (mixture of isomers) | µM | 0.0685 |
| O=C(C1CCCCC1)C1C[C@H]2CNC[C@H]2C1 (mixture of isomers) | µM | 0.192 |
| CC1COCC(C)N1C(=O)C1C[C@H]2CNC[C@H]2C1 (stereo partly shown) | µM | 0.0575 |
| C#CCN(C)C(=O)C1C[C@H]2CNC[C@H]2C1 (stereo partly shown) | µM | 0.139 |
| O=C(OCCF)C1C[C@H]2CNC[C@H]2C1 (mixture of isomers) | µM | 0.0551 |

Provide reported Ki for each item, in the same order as listed.
1. CCCCC(=O)[C@@H]1C[C@H]2CNC[C@H]2C1
2. O=C(CF)C1CC2CNCC2C1 (single isomer, unassigned; isomer 1) [1-(3-azabicyclo[3.3.0]oct-7-yl)-2-fluoro-1-ethanone trifluoroacetate cis isomer]
3. COCCNC(=O)C1CC2CNCC(C2)C1 (stereo not shown)
4. O=C(c1ccc(F)cc1)C1C[C@H]2CNC[C@H]2C1 (mixture of isomers)
5. O=C(OCc1ccoc1)C1C[C@H]2CNC[C@H]2C1 (mixture of isomers)
6. O=C(c1occc1Br)C1C[C@H]2CNC[C@H]2C1 (mixture of isomers)
7. O=C(NC1CCCC1)C1CC2CNCC(C2)C1 (stereo not shown)
8. NC(=O)C1C[C@H]2CNC[C@H]2C1 (mixture of isomers) [3-azabicyclo[3.3.0]octane-7-carboxamide]

OUTPUT:
1: 0.108; 2: 0.0068; 3: 0.457; 4: 0.321; 5: 0.0196; 6: 0.0028; 7: 0.102; 8: 0.394

----------
Give measured pKi for each item. Keep answers brief.
target or system: Human α4β2 (Homo sapiens, UniProt P17787+P43681)
Sequence (P43681 29-627 limits assumed): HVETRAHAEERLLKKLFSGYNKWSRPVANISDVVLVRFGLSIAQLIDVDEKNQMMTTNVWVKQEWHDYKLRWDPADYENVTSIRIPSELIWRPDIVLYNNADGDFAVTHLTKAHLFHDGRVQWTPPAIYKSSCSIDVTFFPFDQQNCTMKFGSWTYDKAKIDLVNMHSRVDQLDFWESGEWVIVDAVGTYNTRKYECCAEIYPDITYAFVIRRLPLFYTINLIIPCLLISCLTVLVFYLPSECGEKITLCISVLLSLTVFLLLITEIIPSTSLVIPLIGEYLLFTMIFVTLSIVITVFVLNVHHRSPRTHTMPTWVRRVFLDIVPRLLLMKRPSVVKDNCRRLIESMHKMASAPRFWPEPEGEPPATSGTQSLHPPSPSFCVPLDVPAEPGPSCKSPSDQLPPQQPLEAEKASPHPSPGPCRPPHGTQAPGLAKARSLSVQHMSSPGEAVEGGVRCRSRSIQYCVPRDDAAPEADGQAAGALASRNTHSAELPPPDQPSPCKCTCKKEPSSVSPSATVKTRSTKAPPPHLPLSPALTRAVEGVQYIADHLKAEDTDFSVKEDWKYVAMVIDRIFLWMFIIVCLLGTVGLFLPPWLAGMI
Sequence (P17787 26-502): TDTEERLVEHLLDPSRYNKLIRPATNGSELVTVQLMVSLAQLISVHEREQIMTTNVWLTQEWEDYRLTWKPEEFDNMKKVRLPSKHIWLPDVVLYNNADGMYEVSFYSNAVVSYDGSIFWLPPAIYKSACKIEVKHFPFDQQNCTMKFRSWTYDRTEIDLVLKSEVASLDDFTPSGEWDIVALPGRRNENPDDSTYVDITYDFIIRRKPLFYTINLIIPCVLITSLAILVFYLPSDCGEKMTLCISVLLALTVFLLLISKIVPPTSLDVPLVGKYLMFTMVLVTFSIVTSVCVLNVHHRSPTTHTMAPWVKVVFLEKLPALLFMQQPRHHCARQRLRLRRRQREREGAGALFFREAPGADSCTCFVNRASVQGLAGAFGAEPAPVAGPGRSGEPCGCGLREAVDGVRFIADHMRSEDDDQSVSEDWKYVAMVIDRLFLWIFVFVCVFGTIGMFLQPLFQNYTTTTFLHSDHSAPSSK
assay name: Binding at human α4β2 (Ki); method not described
Counter-ions that a name gives are not always drawn.
Numbers only, as −log10 of the molar value.

| compound | pKi |
| --- | --- |
| O=C(OC1CCCC1)C1C[C@H]2CNC[C@H]2C1 (mixture of isomers) | 7.86 |
| CCC(C)NC(=O)C1CC2CNCC(C2)C1 (centres unmarked) | 7.37 |
| CCNC(=O)C1CC2CNCC(C2)C1 (centres unmarked) | 8.19 |
| COC(=O)C1=CC2CNCC2C1.Cl (centres unmarked) [hydrochloride] | 8.70 |
| CC1COCC(C)N1C(=O)C1=C[C@@H]2CNC[C@@H]2C1 (some centres unmarked) | 5.77 |
| O=C(c1ccc(F)cc1)C1C[C@H]2CNC[C@H]2C1 (mixture of isomers) | 6.87 |

Provide reported pKi for each item, in the same order as listed.
1. O=C(C1C[C@H]2CNC[C@H]2C1)N1CCCCO1 (mixture of isomers)
2. NC(=O)C1CC2CNCC(C2)C1 (centres unmarked) [3-azabicyclo[3.3.1]nonane-7-carboxamide]
3. CC(C)C(=O)C1CC2CNCC(C2)C1 (centres unmarked)
4. CC(C)CC(=O)C1C[C@H]2CNC[C@H]2C1 (mixture of isomers)
5. CC(C)NC(=O)C1CC2CNCC(C2)C1 (centres unmarked)
6. O=C(NCC1CC1)C1CC2CNCC(C2)C1 (centres unmarked)
7. CNC(=O)C1C[C@H]2CNC[C@H]2C1 (mixture of isomers)

OUTPUT:
8.26
7.11
7.10
8.34
7.51
7.04
6.73

Provide reported pKi for each item, in the same order as listed.
1. CC(C)OCC(=O)C1C[C@H]2CNC[C@H]2C1.O=C(O)C(F)(F)F (mixture of isomers) [trifluoroacetate]
2. O=C(c1ccco1)C1CC2CNCC(C2)C1 (centres unmarked)

OUTPUT:
1. 6.58
2. 6.95

Provide reported pKi for each item, in the same order as listed.
1. COCC(=O)C1C[C@H]2CNC[C@H]2C1.O=C(O)C(F)(F)F (mixture of isomers) [trifluoroacetate]
2. CC(=O)C1C[C@H]2CNC[C@H]2C1 (mixture of isomers)
3. COCCNC(=O)C1CC2CNCC(C2)C1 (centres unmarked)

OUTPUT:
[7.51, 7.97, 6.11]

Provide reported pKi for each item, in the same order as listed.
1. C#CCN(C)C(=O)C1C[C@H]2CNC[C@H]2C1 (some centres unmarked)
2. O=C(c1ccco1)[C@H]1C[C@H]2CNC[C@H]2C1
3. C#CCC(C)OC(=O)C1C[C@H]2CNC[C@H]2C1 (mixture of isomers)
4. CN(C)C(=O)[C@@H]1C[C@H]2CNC[C@H]2C1
5. O=C(c1ccncc1)C1C[C@H]2CNC[C@H]2C1 (mixture of isomers)
6. O=C(C1C[C@H]2CNC[C@H]2C1)N1CCC[C@@H]1CO (mixture of isomers)
7. O=C(CF)C1CC2CNCC2C1 (single isomer, unassigned; isomer 1) [1-(3-azabicyclo[3.3.0]oct-7-yl)-2-fluoro-1-ethanone trifluoroacetate cis isomer]
8. O=C(Nc1ccccc1F)C1CC2CNCC(C2)C1 (centres unmarked)

OUTPUT:
[7.28, 7.88, 7.16, 6.95, 7.44, 6.59, 8.20, 7.62]

Provide reported pKi for each item, in the same order as listed.
1. COC(=O)C1C[C@H]2CNC[C@H]2C1 (mixture of isomers) [Compound A]
2. CC1COCC(C)N1C(=O)C1C[C@H]2CNC[C@H]2C1 (some centres unmarked)
3. N#Cc1ccoc1C(=O)[C@H]1C[C@H]2CNC[C@H]2C1
4. C/C=C/C(=O)C1C[C@H]2CNC[C@H]2C1 (some centres unmarked)
5. O=C(Nc1ccc(F)cc1)C1CC2CNCC(C2)C1 (centres unmarked)
6. NCCNC(=O)C1CC2CNCC(C2)C1 (centres unmarked)
7. C=CCC(C)OC(=O)C1C[C@H]2CNC[C@H]2C1 (mixture of isomers)
8. O=C(C1CC2CNCC(C2)C1)N1CCOCC1 (centres unmarked)

OUTPUT:
1. 8.10
2. 7.15
3. 7.59
4. 7.53
5. 7.49
6. 7.28
7. 7.35
8. 7.65

Provide reported pKi for each item, in the same order as listed.
1. O=C(c1ccco1)[C@@H]1C[C@H]2CNC[C@H]2C1
2. CCCCC(=O)[C@@H]1C[C@H]2CNC[C@H]2C1
3. O=C(NCCF)C1CC2CNCC(C2)C1 (centres unmarked)
4. O=C(NC1CCCC1)C1CC2CNCC(C2)C1 (centres unmarked)
5. O=C(NCC(F)(F)F)C1CC2CNCC(C2)C1 (centres unmarked)
6. O=C(C1C[C@H]2CNC[C@H]2C1)N1CCC[C@H]1CO (mixture of isomers)

OUTPUT:
1: 6.65; 2: 6.73; 3: 7.87; 4: 7.57; 5: 7.64; 6: 6.57

INPUT: Report pKi for NC(=O)C1C[C@H]2CNC[C@H]2C1 (mixture of isomers) [3-azabicyclo[3.3.0]octane-7-carboxamide] tested on Human α4β2 (Homo sapiens, UniProt P17787+P43681).
OUTPUT: 6.50
